target of assay: human TLR8 (Homo sapiens, UniProt Q9NR97)
Sequence (Q9NR97 27-1041): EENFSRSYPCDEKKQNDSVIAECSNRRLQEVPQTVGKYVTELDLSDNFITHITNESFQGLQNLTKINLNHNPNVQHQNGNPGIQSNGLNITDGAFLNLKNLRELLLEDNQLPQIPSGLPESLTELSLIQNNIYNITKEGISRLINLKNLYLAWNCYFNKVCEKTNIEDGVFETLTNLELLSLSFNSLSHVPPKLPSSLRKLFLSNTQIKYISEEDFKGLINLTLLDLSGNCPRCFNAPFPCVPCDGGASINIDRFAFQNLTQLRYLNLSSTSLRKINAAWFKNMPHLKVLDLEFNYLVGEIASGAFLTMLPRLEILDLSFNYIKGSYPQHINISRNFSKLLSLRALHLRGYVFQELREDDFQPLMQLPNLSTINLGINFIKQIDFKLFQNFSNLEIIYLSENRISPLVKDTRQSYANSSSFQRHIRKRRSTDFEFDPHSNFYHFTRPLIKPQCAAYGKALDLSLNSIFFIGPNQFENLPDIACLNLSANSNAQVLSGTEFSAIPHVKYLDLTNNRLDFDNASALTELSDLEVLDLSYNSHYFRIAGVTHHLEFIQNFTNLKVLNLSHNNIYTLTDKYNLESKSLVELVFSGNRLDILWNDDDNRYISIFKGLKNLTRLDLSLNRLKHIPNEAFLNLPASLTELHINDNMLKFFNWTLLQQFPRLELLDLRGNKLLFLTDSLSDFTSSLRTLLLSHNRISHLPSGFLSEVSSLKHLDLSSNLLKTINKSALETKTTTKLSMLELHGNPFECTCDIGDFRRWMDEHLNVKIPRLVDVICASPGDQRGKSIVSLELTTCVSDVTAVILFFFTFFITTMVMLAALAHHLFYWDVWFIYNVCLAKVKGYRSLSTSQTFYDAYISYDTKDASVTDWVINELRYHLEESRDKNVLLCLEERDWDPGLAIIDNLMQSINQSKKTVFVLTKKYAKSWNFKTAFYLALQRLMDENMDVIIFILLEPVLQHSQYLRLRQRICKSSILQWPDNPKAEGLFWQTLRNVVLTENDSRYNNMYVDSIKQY
assay remarks: TLR8 inhibition reporter assay (HEK-Blue SEAP)
particulars: HEK-Blue cells overexpressing human TLR8, stimulated with R848 15.9 µM, 22 h incubation
recorded metric: IC50 (nM)

[
  {
    "compound": "COc1cc(-c2cc3[nH]c4ccc(C5CCNCC5)cc4c3c(C)c2C)cn2ncnc12",
    "output unit": "nM",
    "IC50": 0.8
  },
  {
    "compound": "COc1cc(-c2cc3[nH]c4ccc(C5CCN(CC(C)(C)O)CC5)cc4c3cc2C)cn2ncnc12",
    "output unit": "nM",
    "IC50": 0.9
  },
  {
    "compound": "Cc1cc2c(cc1-c1cn(C)c(=O)c(C)c1C)[nH]c1ccc(C3CCN(CC(C)(C)O)CC3)cc12",
    "output unit": "nM",
    "IC50": 1.5
  }
]

[1] Cc1cc(-c2ccc3c(c2)[nH]c2ccc(C4CCNCC4)cc23)cc(C)n1
[2] Cc1cc(-c2cc(C)c3c(c2)[nH]c2ccc(C4CCNCC4)cc23)cc(C)n1
[3] COc1cc(-c2cc3[nH]c4ccc(C5CCCN(CC(C)(C)O)C5)cc4c3c(C)c2C)cn2ncnc12 (stereo not drawn)
[4] COc1cc(-c2cc3[nH]c4ccc(C5CCCN(C6CCOCC6)C5)cc4c3c(C)c2C)cn2ncnc12 (stereo not drawn)
[in] // ascending sort on recorded IC50 List the labels according to the requested ordering.
[out] 4, 3, 2, 1
(4: 0.7 nM, 3: 1.2 nM, 2: 21 nM, 1: 103 nM)
